# experimentDescription: viability gain of MRP-1-high H69AR cells under doxorubicin, pilot screen, MRP-1 activator project, CellTiter-Glo, duplicate (AID 807);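 further: compound pretreatment 18-22 h then 72 h combined with doxorubicin; 0% = doxorubicin alone and 100% = vehicle without doxorubicin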
# experimentalConditions: H69AR viability with doxorubicin, CellTiter-Glo luminescence; at 10 µM; stronger effect = higher value
metric: viability increase (%)
Output spec: scalar in %, unitless text.

{"columns": ["compound", "unitSpec", "number"],
 "data": [
  ["Cc1ncc(CO)c2cc(S(=O)(=O)c3ccc(F)cc3)c(=O)oc12", "%", -0.48],
  ["COc1cc(C(=O)Nc2ccc(S(=O)(=O)N3CCCCC3C)cc2)cc(OC)c1OC (centres undefined)", "%", -4.48],
  ["O=C(C1Cc2ccccc2O1)N1CCCCC1 (centres undefined)", "%", -1.5],
  ["O=C(Nc1cccc(Cl)c1Cl)c1ccncc1", "%", -0.14],
  ["COc1ccc(S(=O)(=O)N(CC(=O)Nc2ccc3c(c2)OCO3)c2ccccc2OC)cc1", "%", -5.32]
]}

Turning now to a further compound:
IN: Please give the measured viability increase for this compound: CCCCNC(=O)C1c2cc(OC)c(OC)cc2C(=O)N(C)C1c1ccc(OC)cc1 (centres undefined)
OUT: -2.49

====

# inhibition values compiled below
# experimentDescription: growth suppression of yeast trafficking mutant, preliminary HTS, modulators of trafficking downstream of Golgi apparatus project, 1536-format plate, OD 615 nm (AID 637)
# experimentalConditions: yeast transport mutant growth, absorbance 615 nm, 18 h; stronger effect = higher value
Output spec: scalar in %, unitless text.

{"columns": ["molecule", "inhibition (%)"],
 "data": [
  ["COc1ccc(CC(NC(C)=O)C(=O)NC2CCN(c3nc(C)cc(C)c3C#N)CC2)c(OC)c1 (centres undefined)", 2.17]
]}

IN: Please give the measured inhibition for this molecule: `O=C(CNc1ccc(Oc2ccccc2)cc1)N1CCOCC1`
OUT: 6.98

IN: Another: `Cn1cccc1Cc1nnc(SCC(=O)Nc2ccc(F)cc2F)n1-c1ccc(F)cc1`
OUT: -3.5

IN: Another: `O=C(NC1CCCC1)c1ccc2nc[nH]c2c1`
OUT: -0.79

====

# experimentDescription: RAM signaling pathway blockade in yeast – S. cerevisiae, Pdr1DBD-CYC8 efflux-inhibited sensitized strain, primary screen (AID 1298);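 further: 0% = DMSO untreated cells without growth and 100% = 10 µM 1-NA-PP1 full growth; higher means more yeast growth rescued from 5-FOA killing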
# experimentalConditions: S. cerevisiae cbk1-as DSE1-URA3 strain, 5-FOA growth OD615, 2 d; at 50 µM; stronger effect = higher value
Activity calls are given as the source filed them.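 The calls were made as follows: active = RAM network inhibition above 8.4% in each of two replicates, 3 SD over the compound average; inconclusive = above 8.4% inhibition in only one replicate; inactive = 8.4% inhibition or less in each replicate.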
metric: RAM network inhibition

Consider the following illustrative entries.
{"columns": ["molecule", "RAM network inhibition"],
 "data": [
  ["CSc1nnc(NC(=O)C2CCCCC2)s1", "0.63% (inactive)"],
  ["CC1CCN(c2nc3c(c(=O)[nH]c(=O)n3C)n2Cc2ccccc2Cl)CC1", "9.67% (inactive)"]
]}

Turning now to a further molecule:
IN: Please give the measured RAM network inhibition for this molecule: `Cc1nc2ccc(NC(=O)c3ccc(S(=O)(=O)N4CCOCC4)cc3)cc2s1`
OUT: 4.83% (inactive)

====

# growth inhibition values compiled below
# experimentDescription: OD615 S. cerevisiae growth inhibition, permissive medium, pilot counter-assay, permissive growth control for S. cerevisiae lifespan shortening project (AID 705)
# experimentalConditions: OD615, 24 h, at 10 µM, stronger effect = higher value
Activity calls are given as the source filed them.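 The calls were made as follows: active = growth inhibition above 25% in both replicates, a cutoff set 3 SD above the mean; inconclusive = above 25% in only one replicate; inactive = the rest.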

{"columns": ["molecule", "growth inhibition"],
 "data": [
  ["Cc1cc(NC(=O)C2CC(c3ccc(F)cc3)=NO2)no1 (stereo not drawn)", "-0.42% (inactive)"],
  ["O=C(OCCOCCN=C1NS(=O)(=O)c2ccccc21)C1CC(=O)N(c2ccccc2)C1 (stereo not drawn)", "4.05% (inactive)"]
]}

IN: Please give the measured growth inhibition for this molecule: `Cc1cc(C(=O)N2CCN(c3ccccn3)CC2)c(C)o1`
OUT: 9.65% (inactive)

IN: Another: O=C(CSc1oc(-c2ccc(F)cc2)nc1S(=O)(=O)c1ccc(F)cc1)NCC1CCCO1 (stereo not drawn)
OUT: -8.11% (inactive)

====

# experimentDescription: RAM signaling pathway blockade in yeast – S. cerevisiae, Pdr1DBD-CYC8 efflux-inhibited sensitized strain, primary screen (AID 1298);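 further: 0% = DMSO untreated cells without growth and 100% = 10 µM 1-NA-PP1 full growth; higher means more yeast growth rescued from 5-FOA killing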
# experimentalConditions: S. cerevisiae cbk1-as DSE1-URA3 strain, 5-FOA growth OD615, 2 d; at 50 µM; stronger effect = higher value
# RAM network inhibition values compiled below
Output spec: scalar in %, unitless text.

{"columns": ["molecule", "unitSpec", "number"],
 "data": [
  ["COc1ccc(S(=O)(=O)Cc2ccc(C(=O)N3CCCC3)o2)cc1", "%", 4.21]
]}

IN: Please give the measured RAM network inhibition for this molecule: `C=CCOC(=O)C1=C(C)NC(C)=C(C(=O)OCC=C)C1c1ccc(O)cc1`
OUT: 2.05

IN: Another: CC(C)C(NC(=O)C12CC3CC(CC(C3)C1)C2)C(=O)NC1=NCCS1 (centres undefined)
OUT: 4.34

IN: Another: `Cc1cc(C)n(C(=O)CCCC(=O)n2nc(C)cc2C)n1`
OUT: 2.92

IN: Another: `CCN1CCN(C(=O)C2CCN(S(=O)(=O)c3cccc4cccnc34)CC2)CC1`
OUT: 0.98

IN: Another: `CN1CCc2c(sc3nc(SCC(N)=O)n(-c4ccccc4)c(=O)c23)C1`
OUT: 3.54

IN: Another: `C=C(C)Cn1c(CCCNC(=O)CCC)nc2ccccc21`
OUT: 1.57

IN: Another: `C(=C\CSc1nnnn1-c1ccccc1)/CSc1nnnn1-c1ccccc1`
OUT: 10

IN: Another: COc1ccc(C2C(C(=O)NCC3CCCO3)c3cc(OC)c(OC)cc3C(=O)N2C)cc1OC (centres undefined)
OUT: 0.94

====

# viability increase values compiled below
# experimentDescription: viability gain of MRP-1-high H69AR cells under doxorubicin, pilot screen, MRP-1 activator project, CellTiter-Glo, duplicate (AID 807);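 further: compound pretreatment 18-22 h then 72 h combined with doxorubicin; 0% = doxorubicin alone and 100% = vehicle without doxorubicin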
# experimentalConditions: H69AR viability with doxorubicin, CellTiter-Glo luminescence; at 10 µM; stronger effect = higher value
Output spec: scalar in %, unitless text.

Consider the following illustrative entries.
{"columns": ["molecule", "unitSpec", "viability increase"],
 "data": [
  ["COC(=O)c1c(NC(=O)Cc2cccs2)sc(C)c1C", "%", -4.9],
  ["COCCCNC(=O)Cn1nnc(-c2ccc(NC(=O)c3ccc(F)cc3)cc2)n1", "%", 0.73],
  ["Cc1nc2ccccc2c2nc3ccccc3n12", "%", -0.65],
  ["O=C(CCS(=O)(=O)c1ccccc1)Nc1nc2c(s1)COc1ccccc1-2", "%", -8.46]
]}

Turning now to a further molecule:
IN: Please give the measured viability increase for this molecule: O/N=C1/C2C3CC4C5C3C1C5C1(OCCO1)C42 (stereo not given)
OUT: -1.45

====

# experimentDescription: HUVEC growth inhibition – cell-based, human, primary screen (AID 575);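 further: 100% = median of untreated cell wells with 0.1% DMSO on each plate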
# experimentalConditions: HUVEC proliferation, CellTiter-Glo luminescence, 72 h; at 10 µM; stronger effect = lower value
# label = Y if viability < 80% else N

{"columns": ["molecule", "categoryLabel"],
 "data": [
  ["CC(=O)Nc1cc2c(nc1C)nc(C)n2Cc1ccc(Br)cc1", "N"],
  ["CC1(C)O[C@@H]2C[C@H]3[C@@H]4C[C@H](F)C5=CC(=O)C=C[C@]5(C)[C@@]4(F)[C@@H](O)C[C@]3(C)[C@]2(C(=O)CO)O1", "N"],
  ["O=C(c1ccccc1Oc1nnnn1-c1ccccc1)N1CCOCC1", "Y"]
]}

IN: Please determine if `CCOC(=O)N1CCN(C(=O)c2ccc3c(=O)n(CCc4ccccc4)c(=O)[nH]c3c2)CC1` is below 80% in terms of viability.
OUT: Y

IN: Another: `CCOC(=O)c1cc2c(=O)n3cccc(C)c3nc2n(Cc2ccco2)c1=NC(=O)c1cccnc1`
OUT: Y

IN: Another: COc1ccc2c(c1)C1(C)CC(C)(C)N2C(=O)N1c1ccccc1 (stereo not drawn)
OUT: Y

====

# experimentDescription: viability gain of MRP-1-high H69AR cells under doxorubicin, pilot screen, MRP-1 activator project, CellTiter-Glo, duplicate (AID 807);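 further: compound pretreatment 18-22 h then 72 h combined with doxorubicin; 0% = doxorubicin alone and 100% = vehicle without doxorubicin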
# experimentalConditions: H69AR viability with doxorubicin, CellTiter-Glo luminescence; at 10 µM; stronger effect = higher value
metric: viability increase (%)
Output spec: scalar in %, unitless text.

{"columns": ["compound", "viability increase [%]"],
 "data": [
  ["Nc1c(C(=O)Nc2ccc3c(c2)OCCO3)nnn1CCc1ccccc1", -5.88],
  ["O=C(Cn1c(=O)[nH]c2ccsc2c1=O)NC1CCCCC1", 0.65],
  ["O=C(Nc1ccc(Cl)cn1)c1cccc(F)c1", -5.84]
]}

IN: Please give the measured viability increase for this compound: `CCCn1c(CNC(=O)Cc2ccccc2)nc2ccccc21`
OUT: -0.37

IN: Another: O=C(O)CC1Sc2ccccc2NC1=O (stereo unspecified)
OUT: -1.79

IN: Another: `Cc1nn(Cc2ccc(Cl)c(Cl)c2)c(C)c1NC(=O)c1cc(C2CC2)on1`
OUT: 1.41

IN: Another: `S=c1nc(-c2ccccc2)n(CCN2CCOCC2)c2c1CCCC2`
OUT: -4.18

IN: Another: CCCCCOC(=O)c1[nH]c2c(c1C)C(=O)CC(c1ccco1)C2 (stereo unspecified)
OUT: -5.25

IN: Another: `N=c1c2c(n(Cc3ccc(F)cc3)c3c1CCC3)CCC2`
OUT: -0.55

IN: Another: COc1ccc(N2C(=O)CCC(C(=O)N3CCCCCC3)C2c2ccc(OC)c(OC)c2)cc1 (stereo unspecified)
OUT: -1.38

IN: Another: `O=C(c1ccco1)N1CCN(S(=O)(=O)c2cccc3nsnc23)CC1`
OUT: -0.16

IN: Another: `Cc1ccc2c(CC(=O)O)coc2c1C`
OUT: -2.01

IN: Another: `Cc1cccc(NC(=O)CSc2nnc(-c3ccccc3)n2N)c1C`
OUT: -2.08

Source of measurements: PubChem BioAssay
